# Test context: 323.15 K; 100 kPa; Liquid; Vibrating tube method
Below, each entry is listed alongside its reported mass density.
Kindly answer with a numeric value in kg/m3, unit omitted.

Worked examples follow.
Tell me the measured mass density of CC[NH+](CC)CC.O=C([O-])c1ccccc1 [triethylammonium benzoate] , please.
1081.07

Quick one: mass density for CC[NH+](CC)CC.O=S(=O)([O-])C(F)(F)F [triethylammonium trifluoromethanesulfonate] ?
1244.46

Record request: mass density value, item CCN(CC)CC.O=C(O)c1ccccc1O [triethylammonium salicylate]
1079.58

Next:
Consider the compound shown here: CC[NH+](CC)CC.O=C([O-])C(F)(F)F [triethylammonium trifluoroacetate] What is its recorded mass density?
1141

# lookup: mass density of CC[NH2+]CC.O=C([O-])C(F)(F)F [diethylammonium trifluoroacetate]
1158.82

Requested field: mass density. Item: CCC(=O)[O-].OCC[NH+](CCO)CCO [triethanolammonium propanoate]
1121.15

###

# Test context: 333.15 K; 100 kPa; Liquid; Vibrating tube method
± gives the expanded uncertainty stated by the source.
Consider the following compounds and their measured mass density readings.
Note: state the figure and append the unit.

Previously resolved entries follow.
Form field: reported mass density of CC[NH+](C)C.O=C([O-])C(F)(F)F [N,N-dimethyl-N-ethylammonium trifluoroacetate]
1178.33 ± 9.8 kg/m3

Return reported mass density; argument: O=S(=O)(O)O.OCCN(CCO)CCO [triethanolammonium hydrogen sulfate]
1416.33 ± 14 kg/m3

Dear colleague, I am looking for the recorded mass density of the following compound: CC[NH+](CC)CC.CS(=O)(=O)[O-] [triethylammonium methanesulfonate]
1093.99 ± 8.4 kg/m3

Next:
mass density for CC[NH2+]CC.O=C([O-])C(F)(F)F [diethylammonium trifluoroacetate] ?
1150.69 ± 9.3 kg/m3

###

# Lookup of reported mass density keyed by entry
# Test context: 353.15 K; 100 kPa; Liquid; Vibrating tube method
Quick note: give the figure in kg/m3, leave out the unit.

Here are 3 compounds together with their reported answers.
What value of mass density has been reported for the following compound? O=C(O)c1ccccc1O.OCCN(CCO)CCO [triethanolammonium salicylate]
1233.42

Fill in the blank: the reported mass density of CC[NH+](CC)CC.O=C([O-])c1ccccc1 [triethylammonium benzoate] is ____.
1060.82

Record request: mass density value, item O=S(=O)(O)O.OCCN(CCO)CCO [triethanolammonium hydrogen sulfate]
1406.37

***
Which mass density is listed for CC[NH2+]CC.O=C([O-])C(F)(F)F [diethylammonium trifluoroacetate] ?
1134.5

Form field: reported mass density of CC(=O)O.CCN(CC)CC [triethylammonium acetate]
967.74

Looking for the measured mass density of CC[NH2+]CC.O=S(=O)([O-])O [diethylammonium hydrogen sulfate] , can you help?
1345.25

Give its mass density value. Item: CCC(=O)[O-].OCC[NH+](CCO)CCO [triethanolammonium propanoate]
1102.06

Consider the compound CC[NH+](CC)CC.CS(=O)(=O)[O-] [triethylammonium methanesulfonate] and give its measured mass density.
1080.98

What value of mass density has been reported for the following compound? CC[NH+](CC)CC.O=C([O-])C(F)(F)F [triethylammonium trifluoroacetate]
1116.54

###

# Test context: 298.15 K; 100 kPa; Liquid; Vibrating tube method
# mass density listing for each entry below
Write the value in kg/m3 as a bare number.

Field: example entries. Status: answers known.
What measured mass density goes with CC[NH2+]CC.O=S(=O)([O-])O [diethylammonium hydrogen sulfate] ?
1379.53

Record request: mass density value, item CC[NH+](CC)CC.O=S(=O)([O-])C(F)(F)F [triethylammonium trifluoromethanesulfonate]
1264.56

More entries:
Name the recorded mass density for CC[NH+](CC)CC.O=C([O-])c1ccccc1 [triethylammonium benzoate] .
1098.02

Quick one: mass density for CCN(CC)CC.O=C(O)c1ccccc1O [triethylammonium salicylate] ?
1095.79

Data request, read-out mass density, for CC[NH+](CC)CC.CS(=O)(=O)[O-] [triethylammonium methanesulfonate]
1117.11

Look up mass density: CC[NH+](C)C.O=C([O-])C(F)(F)F [N,N-dimethyl-N-ethylammonium trifluoroacetate]
1208.11

State the recorded mass density for this entry: CC(=O)O.CCN(CC)CC [triethylammonium acetate]
1009.63

Entry CCC(=O)[O-].OCC[NH+](CCO)CCO [triethanolammonium propanoate] has what mass density?
1136.51

Given the entry CC[NH+](CC)CC.O=C([O-])C(F)(F)F [triethylammonium trifluoroacetate] , report its measured mass density.
1161.57

###

# Test context: 343.15 K; 100 kPa; Liquid; Vibrating tube method
# Lookup of reported mass density keyed by entry
The response must be a number in kg/m3 with no trailing unit.

Below are worked cases with known answers.
Item under review: O=S(=O)(O)O.OCCN(CCO)CCO [triethanolammonium hydrogen sulfate] . Reported mass density?
1411.31

Any idea what its mass density is? The compound is CC(=O)O.CCN(CC)CC [triethylammonium acetate]
975.48

// lookup mass density for CC[NH2+]CC.O=S(=O)([O-])O [diethylammonium hydrogen sulfate]
1351.38

// query mass density value for entry CC[NH+](CC)CC.O=C([O-])c1ccccc1 [triethylammonium benzoate]
1067.55

What does the data say about its mass density? Entry: CC[NH+](CC)CC.CS(=O)(=O)[O-] [triethylammonium methanesulfonate]
1087.47

Now look at this entry.
Record request: mass density value, item CCN(CC)CC.O=C(O)c1ccccc1O [triethylammonium salicylate]
1066.73

###

# mass density annotations
# Test context: 308.15 K; 100 kPa; Liquid; Vibrating tube method
Field: numeric (kg/m3). Do not append units.

Query: mass density; subject: CC[NH+](CC)CC.CS(=O)(=O)[O-] [triethylammonium methanesulfonate]
1110.44

Fill in: mass density of CCC(=O)[O-].OCC[NH+](CCO)CCO [triethanolammonium propanoate] is ___
1130.43

Fill blank: measured mass density of the molecule CCN(CC)CC.O=C(O)c1ccccc1O [triethylammonium salicylate] is ____.
1089.33

Quick one: mass density of CC[NH+](CC)CC.O=C([O-])C(F)(F)F [triethylammonium trifluoroacetate] ?
1153.32

Consider the molecule shown here: CC[NH2+]CC.O=S(=O)([O-])O [diethylammonium hydrogen sulfate] What is its recorded mass density?
1373.15

Please examine the following record next.
Reported mass density for CC(=O)O.CCN(CC)CC [triethylammonium acetate] : what is it?
1002.1

###

# Test context: 323.15 K; 100 kPa; Liquid; Vibrating tube method
Reported endpoint: mass density (kg/m3)
Answer with a number only, understood to be in kg/m3.

Give the measured mass density of CC(=O)O.CCN(CC)CC [triethylammonium acetate] .
990.75

###

# Test context: 318.15 K; 100 kPa; Liquid; Vibrating tube method
Reported endpoint: mass density (kg/m3)
Your answer should be a plain number; it is taken to be in kg/m3.

Would you kindly share the measured mass density for CC[NH+](CC)CC.O=C([O-])C(F)(F)F [triethylammonium trifluoroacetate] ?
1145.1

More entries:
// returns reported mass density for input CC[NH+](CC)CC.O=S(=O)([O-])C(F)(F)F [triethylammonium trifluoromethanesulfonate]
1248.45

Query (molecule): CC[NH2+]CC.O=S(=O)([O-])O [diethylammonium hydrogen sulfate] ; field requested: mass density
1366.85

For the molecule CC[NH+](CC)CC.CS(=O)(=O)[O-] [triethylammonium methanesulfonate] , what mass density is on record?
1103.83

###

# Test context: 353.15 K; 100 kPa; Liquid; Vibrating tube method
Measured mass density of individual entries
# value in kg/m3; strip the unit string

Below, each entry is followed by its recorded mass density result.
I am curious: what mass density value has been reported for CC[NH2+]CC.CS(=O)(=O)[O-] [diethylammonium methanesulfonate] ?
1104.68

GET /values?readout=mass density&item= CCN(CC)CC.O=P(O)(O)O [triethylammonium dihydrogen phosphate]
1322.31

More entries:
Returns the measured mass density for the input compound. Input: CC[NH+](C)C.O=C([O-])C(F)(F)F [N,N-dimethyl-N-ethylammonium trifluoroacetate]
1161.51

Data request, read-out mass density, for CC[NH+](CC)CC.O=S(=O)([O-])C(F)(F)F [triethylammonium trifluoromethanesulfonate]
1220.84

Recorded mass density of CCN(CC)CC.O=C(O)c1ccccc1O [triethylammonium salicylate] , please.
1060.36

###

Let's look at some compounds and their measured mass density.
# Test context: 338.15 K; 100 kPa; Liquid; Vibrating tube method
± gives the expanded uncertainty stated by the source.

Which mass density reading was recorded for the compound CC[NH2+]CC.O=S(=O)([O-])O [diethylammonium hydrogen sulfate] ?
1354.45 ± 13 kg/m3

For the compound CC[NH2+]CC.CS(=O)(=O)[O-] [diethylammonium methanesulfonate] , what mass density is on record?
1114.27 ± 8.7 kg/m3

Returns the measured mass density for the input compound. Input: CC(=O)O.CCN(CC)CC [triethylammonium acetate]
979.32 ± 6.7 kg/m3
